target: recombinant prostaglandin reductase 2 (PTGR2) (Homo sapiens); test: in situ gel-based chemical proteomics competition, RJS-1027 probe; details: RJS-1027 1 μM, normalized to PTGR2 WT, two biological replicates, read-out: 50% inhibitory concentration (IC50), competition with probe labeling
Sequence (Q8N8N7 whole entry): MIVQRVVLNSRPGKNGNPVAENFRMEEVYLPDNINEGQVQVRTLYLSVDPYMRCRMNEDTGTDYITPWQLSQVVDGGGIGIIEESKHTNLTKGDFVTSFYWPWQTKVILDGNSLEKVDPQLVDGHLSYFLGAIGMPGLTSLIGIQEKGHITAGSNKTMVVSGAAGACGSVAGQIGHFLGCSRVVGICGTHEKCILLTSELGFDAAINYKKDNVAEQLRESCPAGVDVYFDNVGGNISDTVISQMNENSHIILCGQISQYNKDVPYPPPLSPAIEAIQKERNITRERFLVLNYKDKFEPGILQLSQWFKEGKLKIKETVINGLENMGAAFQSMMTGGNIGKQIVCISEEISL
pIC50: −log10 of the molar value.

# itemSmiles, targetEntity, pIC50
records = [
    ("COc1ccccc1N1CCN(C(=O)c2cccc(S(=O)(=O)n3cncn3)c2)CC1", "recombinant prostaglandin reductase 2 (PTGR2) (Homo sapiens)", 7.05),
]
